Ref: ChEMBL document CHEMBL4152223

Record form. Attribute: MIC. Fill in for each entry.
tested on: Mycobacterium tuberculosis; experiment: Antimycobacterial activity against INH/RIF/rifabutine/STM resistant Mycobacterium tuberculosis 9449/2006 after 14 days; format: functional; details: 9449/2006, 336 h
Reply with just the number (in µM).

Prompt: Under Mycobacterium tuberculosis: MIC value of CCCNC(=O)NNC(=O)c1ccncc1 ?
Completion: 16

Prompt: Under Mycobacterium tuberculosis: MIC value of CNC(=O)NNC(=O)c1ccncc1 ?
Completion: 62.5

Prompt: Under Mycobacterium tuberculosis: MIC value of CCCCCCCCCCCCNc1nnc(-c2ccncc2)o1 ?
Completion: 4

Prompt: Under Mycobacterium tuberculosis: MIC value of CCNC(=O)NNC(=O)c1ccncc1 ?
Completion: 125

###

test: Selectivity index, ratio of IC50 for human HepG2 cells to MIC for INH/RIF/rifabutine/STM/EMB/clofazimine resistant Mycobacterium tuberculosis Praha 1; assay type: toxicity; details: read-out: Selectivity Index
Recorded Endpoint: selectivity ratio

Prompt: Given the compound CCCCCCCCCCCCNc1nnc(-c2ccncc2)o1 , what is its reported selectivity ratio?
Completion: > 6.25

Prompt: Given the compound CCCNC(=O)NNC(=O)c1ccncc1 , what is its reported selectivity ratio?
Completion: > 312

Prompt: Given the compound CNC(=O)NNC(=O)c1ccncc1 , what is its reported selectivity ratio?
Completion: > 80

Prompt: Given the compound CCNC(=O)NNC(=O)c1ccncc1 , what is its reported selectivity ratio?
Completion: > 32

###

Record form. Attribute: selectivity ratio. Fill in for each entry.
experiment: Selectivity index, ratio of IC50 for human HepG2 cells to MIC for INH/RIF/rifabutine/STM/EMB resistant Mycobacterium tuberculosis 234/2005; type: toxicity; conditions: read-out: Selectivity Index

Prompt: Given the compound CCNC(=O)NNC(=O)c1ccncc1 , what is its reported selectivity ratio?
Completion: > 32

Prompt: Given the compound CCCNC(=O)NNC(=O)c1ccncc1 , what is its reported selectivity ratio?
Completion: > 312

Prompt: Given the compound CNC(=O)NNC(=O)c1ccncc1 , what is its reported selectivity ratio?
Completion: > 80

Prompt: Given the compound CCCCCCCCCCCCNc1nnc(-c2ccncc2)o1 , what is its reported selectivity ratio?
Completion: > 6.25

###

Record form. Attribute: selectivity ratio. Fill in for each entry.
assay: Selectivity index, ratio of IC50 for human HepG2 cells to MIC for INH/RIF/rifabutine/STM/EMB/OFX/gentamicin/amikacin resistant Mycobacterium tuberculosis Praha 131; format: toxicity; conditions: read-out: Selectivity Index

Prompt: Given the compound CCNC(=O)NNC(=O)c1ccncc1 , what is its reported selectivity ratio?
Completion: > 32

Prompt: Given the compound CNC(=O)NNC(=O)c1ccncc1 , what is its reported selectivity ratio?
Completion: > 80

Prompt: Given the compound CCCNC(=O)NNC(=O)c1ccncc1 , what is its reported selectivity ratio?
Completion: > 312

Prompt: Given the compound CCCCCCCCCCCCNc1nnc(-c2ccncc2)o1 , what is its reported selectivity ratio?
Completion: > 12.5

###

experiment: Selectivity index, ratio of IC50 for human HepG2 cells to MIC for INH/RIF/rifabutine/STM/EMB/OFX/clofazimine resistant Mycobacterium tuberculosis Praha 4; assay type: toxicity; conditions: read-out: Selectivity Index
Recorded Endpoint: selectivity ratio

Prompt: Given the molecule CCCNC(=O)NNC(=O)c1ccncc1 , what is its reported selectivity ratio?
Completion: > 312

Prompt: Given the molecule CCCCCCCCCCCCNc1nnc(-c2ccncc2)o1 , what is its reported selectivity ratio?
Completion: > 6.25

Prompt: Given the molecule CNC(=O)NNC(=O)c1ccncc1 , what is its reported selectivity ratio?
Completion: > 80

Prompt: Given the molecule CCNC(=O)NNC(=O)c1ccncc1 , what is its reported selectivity ratio?
Completion: > 32

###

assay: Selectivity index, ratio of IC50 for human HepG2 cells to MIC for INH/RIF/rifabutine/STM resistant Mycobacterium tuberculosis 9449/2006; format: toxicity; conditions: read-out: Selectivity Index
Recorded Endpoint: selectivity ratio

Prompt: Given the compound CCNC(=O)NNC(=O)c1ccncc1 , what is its reported selectivity ratio?
Completion: > 32

Prompt: Given the compound CNC(=O)NNC(=O)c1ccncc1 , what is its reported selectivity ratio?
Completion: > 80

Prompt: Given the compound CCCNC(=O)NNC(=O)c1ccncc1 , what is its reported selectivity ratio?
Completion: > 312

Prompt: Given the compound CCCCCCCCCCCCNc1nnc(-c2ccncc2)o1 , what is its reported selectivity ratio?
Completion: > 6.25

###

Record form. Attribute: MIC. Fill in for each entry.
tested on: Mycobacterium tuberculosis; assay: Antimycobacterial activity against INH/RIF/rifabutine/STM/EMB/OFX/gentamicin/amikacin resistant Mycobacterium tuberculosis Praha 131 after 14 days; assay type: functional; conditions: Praha 131, 336 h
Reply with just the number (in µM).

Prompt: Given the compound CCCNC(=O)NNC(=O)c1ccncc1 , what is its reported MIC?
Completion: 16

Prompt: Given the compound CCCCCCCCCCCCNc1nnc(-c2ccncc2)o1 , what is its reported MIC?
Completion: 4

Prompt: Given the compound CNC(=O)NNC(=O)c1ccncc1 , what is its reported MIC?
Completion: 32

Prompt: Given the compound CCNC(=O)NNC(=O)c1ccncc1 , what is its reported MIC?
Completion: 125
